Values were extracted from paper PMC10914731.

Catalogue of Hepatocyte Stability Human QH readings, one per entry.
Format: in vitro ADME, Human
assay conditions: Human
*1 amine or outer side, *2 acyl side, *3 side chain or, on linkers, in order; H or OH if unused. Where a SMILES comes first, the peptide text is derived from it. [ ]: non-standard residue; d: D form. ξ: configuration not given here. X3 = C#CCOc1ccc([C@@H](OC)[C@H](N[*:1])C(=O)[*:2])cc1; X5 = C=CCn1cc(C[C@@H](C(=O)[*:2])N(C)[*:1])c2ccccc21; X7 = C=CCn1cc(C[C@H](N[*:1])C(=O)[*:2])c2ccccc21; NMeLeu(5-OH,4R) = CN[C@@H](C[C@@H](C)CO)C(=O)O; Phe(βR-OMe) = CO[C@H](c1ccccc1)[C@H](N)C(=O)O; ξNMeTrp(1-Me) = CNC(Cc1cn(C)c2ccccc12)C(=O)O; X8 = CC(CO)C[C@@H](C(=O)[*:2])N(C)[*:1]; NMeL = CN[C@@H](CC(C)C)C(=O)O; ξV = CC(C)C(N)C(=O)O

These solved cases illustrate the format of a correct answer.
C=CCn1cc(C[C@H]2C(=O)N(C)[C@@H](C[C@@H](C)CO)C(=O)N[C@@H](C)C(=O)N[C@@H]([C@H](OC)c3ccccc3)C(=O)N[C@@H](C(C)C)C(=O)N(C)[C@@H](CC(C)C)C(=O)N[C@@H](C(C)C)C(=O)N2C)c2ccccc21 [SI-60] (cyclo(A[Phe(βR-OMe)]V[NMeL]V[X5][NMeLeu(5-OH,4R)]))    50.176%
C#CCOc1ccc([C@@H](OC)[C@@H]2NC(=O)[C@@H](C)NC(=O)[C@H](CC(C)CO)N(C)C(=O)C(Cc3cn(C)c4ccccc34)N(C)C(=O)C(C(C)C)NC(=O)[C@H](CC(C)C)N(C)C(=O)[C@@H](C(C)C)NC2=O)cc1 (some centres unmarked) [SI-64] (cyclo([NMeL][ξV][ξNMeTrp(1-Me)][X8][dA][X3][dV]))    21.688%
CCCCCn1cc(C[C@@H]2NC(=O)[C@H](CC(C)C)N(C)C(=O)[C@H](C(C)C)NC(=O)[C@H]([C@H](OC)c3ccccc3)NC(=O)[C@H](C)NC(=O)[C@H](C[C@@H](C)CO)N(C)C(=O)[C@H](Cc3cn(C)c4ccccc34)NC2=O)nn1    17.172%
CO[C@H](c1ccc(OCc2cn(CCCCCn3cc(COc4ccc([C@@H](OC)[C@@H]5NC(=O)[C@H](C)NC(=O)[C@H](C[C@@H](C)CO)N(C)C(=O)[C@H](Cc6cn(C)c7ccccc67)NC(=O)[C@H](C(C)C)NC(=O)[C@H](CC(C)C)N(C)C(=O)[C@H](C(C)C)NC5=O)cc4)nn3)nn2)cc1)[C@@H]1NC(=O)[C@H](C)NC(=O)[C@H](C[C@@H](C)CO)N(C)C(=O)[C@H](Cc2cn(C)c3ccccc23)NC(=O)[C@H](C(C)C)NC(=O)[C@H](CC(C)C)N(C)C(=O)[C@H](C(C)C)NC1=O    25.024%

**Query** Reported Hepatocyte Stability Human QH for C=CCn1cc(C[C@@H]2NC(=O)[C@H](C(C)C)NC(=O)[C@H](CC(C)C)N(C)C(=O)[C@H](C(C)C)NC(=O)[C@H]([C@H](OC)c3ccccc3)NC(=O)[C@H](C)NC(=O)[C@H](C[C@@H](C)CO)N(C)C2=O)c2ccccc21 [Compound 13] (cyclo(A[Phe(βR-OMe)]V[NMeL]V[X7][NMeLeu(5-OH,4R)])) : what is it?
**Result** 18.968%
